Reference source: patent US10526316B2

molecular target: kinase enzymes (Homo sapiens)
Listed next: entries and their corresponding Kd.

COMPOUND: CC(Nc1cc(F)c(F)c(F)c1)c1cc(C(=O)NCC(C)(C)O)cc2ncc(N3CCOCC3)nc12 (stereo not drawn) [Compound 292]
TESTED_SYSTEM: kinase enzymes (Homo sapiens)
UNIT_ABBREV: µM
INEQUALITY_SYMBOL: >
Kd: 30.2
--
COMPOUND: CC(Nc1ccc(F)c(F)c1)c1cc(C(=O)N(C)C2CCNC2)cc2ncc(N3CCOCC3)nc12 (stereo not drawn) [Compound 323b]
TESTED_SYSTEM: kinase enzymes (Homo sapiens)
UNIT_ABBREV: µM
INEQUALITY_SYMBOL: >
Kd: 30.2
--
COMPOUND: Cc1c(F)cccc1CN(C)c1cc(C(=O)N2CCNC(C(F)(F)F)C2)cc2ncc(N3CCOCC3)nc12 (single isomer, unassigned) [Compound 367b]
TESTED_SYSTEM: kinase enzymes (Homo sapiens)
UNIT_ABBREV: µM
INEQUALITY_SYMBOL: =
Kd: 28.2
--
COMPOUND: Cc1cccc(N(C)C(C)c2cc(C(=O)N(C)C)cc3ncc(N4CCOCC4)nc23)c1 (single isomer, unassigned) [Compound 127]
TESTED_SYSTEM: kinase enzymes (Homo sapiens)
UNIT_ABBREV: µM
INEQUALITY_SYMBOL: =
Kd: 25.7
--
COMPOUND: CNCCNC(=O)c1cc(C(C)Oc2ccc(Cl)c(F)c2)c2nc(N3CCOCC3)cnc2c1 (single isomer, unassigned) [Compound 380b]
TESTED_SYSTEM: kinase enzymes (Homo sapiens)
UNIT_ABBREV: µM
INEQUALITY_SYMBOL: =
Kd: 18.6
--
COMPOUND: C[C@H](CO)NCc1cc(F)cc(N2CCCC2c2cc(C(=O)N(C)C)cc3ncc(N4CCOCC4)nc23)c1 (mixture of isomers) [Compound 48]
TESTED_SYSTEM: kinase enzymes (Homo sapiens)
UNIT_ABBREV: µM
INEQUALITY_SYMBOL: >
Kd: 30.2

* * *

target: kinase enzymes (Homo sapiens, UniProt P42345)
Let's look at some molecules and their measured Kd.
MEASURED_PROPERTY: Kd

MOLECULE: CC(Nc1cc(F)cc(F)c1)c1cc(C(=O)N(C)C)cc2ncc(N3CCOCC3)nc12 (stereo not shown) [Compound 11]
RESULT: > 30.2 µM

MOLECULE: CC(Nc1ccc(F)c(F)c1)c1cc(CO)cc2ncc(N3CCOCC3)nc12 (stereo not shown)
RESULT: 18.6 µM

MOLECULE: COc1cc(NC(C)c2cc(C(=O)N3CCOCC3)cc3ncc(N4CCOCC4)nc23)cc(OC)c1 (stereo not shown)
RESULT: > 30.2 µM

MOLECULE: CC(Nc1cc(F)cc(F)c1)c1cc(CN2CCOCC2)cc2ncc(N3CCOCC3)nc12 (stereo not shown)
RESULT: > 30.2 µM

* * *

system: Akt phosphorylated at Ser473 in PC-3 cells; test: Cellular assay: phosphorylation of Akt at Ser473 in PC-3 cells (MSD ELISA); type: cell-based; conditions: PC-3 cells, 60 min compound incubation, MSD ELISA; read-out: IC50 pAkt_S473
Below: a set of entries, each annotated with reported IC50.

MOLECULE: Cc1ccc(NC(C)c2cc(C(=O)NCCO)cc3ncc(N4CCOCC4)nc23)cc1F (single isomer, unassigned) [Compound 295a]
IC50: > 513 nM
--
MOLECULE: Cc1cccc(N(C)C(C)c2cc(C(=O)N(C)C)cc3ncc(N4CCOCC4)nc23)c1 (single isomer, unassigned) [Compound 128]
IC50: > 513 nM
--
MOLECULE: CC(Nc1cc(F)cc(F)c1)c1cc(CN2CCOCC23COC3)cc2ncc(N3CCOCC3)nc12 (single isomer, unassigned) [Compound 195]
IC50: ~102 nM
--
MOLECULE: CC(C)NCCNC(=O)c1cc(C(C)Nc2cccc(F)c2)c2nc(N3CCOCC3)cnc2c1 (single isomer, unassigned) [Compound 228]
IC50: > 513 nM
--
MOLECULE: CNCCOCCN(C)C(=O)c1cc(C(C)Nc2cc(F)cc(F)c2)c2nc(N3CCOCC3)cnc2c1 (single isomer, unassigned) [Compound 174]
IC50: > 513 nM
--
MOLECULE: Cc1cc(C2CCCN2c2cc(F)cc(F)c2)c2nc(N3CCOCC3)cnc2c1 (single isomer, unassigned) [Compound 107]
IC50: > 513 nM
--
MOLECULE: CC(Nc1cc(F)cc(F)c1)c1cc(CN2C[C@@H](C)O[C@@H](C)C2)cc2ncc(N3CCOCC3)nc12 (single isomer, unassigned) [Compound 208]
IC50: 186 nM
--
MOLECULE: CC(Nc1cc(F)c(F)c(F)c1)c1cc(C(=O)N(C)C2CCNC2)cc2ncc(N3CCOCC3)nc12 (single isomer, unassigned) [Compound 296b]
IC50: 468 nM
--
MOLECULE: COC(=O)c1cc(C2CCCN2c2cc(F)cc(F)c2)c2nc(N3CCOCC3)cnc2c1 (single isomer, unassigned) [Compound 252]
IC50: > 513 nM
--
MOLECULE: CC(Nc1cc(F)cc(F)c1)c1cc(C(=O)N2CCNC(C(F)(F)F)C2)cc2ncc(N3CCOCC3)nc12 (single isomer, unassigned) [Compound 237c]
IC50: 26 nM
--
MOLECULE: CC(Oc1ccc(F)c(F)c1)c1cc(C(=O)NCCN(C)C)cc2ncc(N3CCOCC3)nc12 (single isomer, unassigned) [Compound 299a]
IC50: ~45 nM
--
MOLECULE: CC(Oc1cccc(F)c1)c1cc(C(=O)O)cc2ncc(N3CCOCC3)nc12 (single isomer, unassigned) [Compound 257c]
IC50: > 513 nM
